Please provide measured IC50 for the entries that follow.
Assayed System: HDAC3 (Homo sapiens)
Sequence (O15379 whole entry): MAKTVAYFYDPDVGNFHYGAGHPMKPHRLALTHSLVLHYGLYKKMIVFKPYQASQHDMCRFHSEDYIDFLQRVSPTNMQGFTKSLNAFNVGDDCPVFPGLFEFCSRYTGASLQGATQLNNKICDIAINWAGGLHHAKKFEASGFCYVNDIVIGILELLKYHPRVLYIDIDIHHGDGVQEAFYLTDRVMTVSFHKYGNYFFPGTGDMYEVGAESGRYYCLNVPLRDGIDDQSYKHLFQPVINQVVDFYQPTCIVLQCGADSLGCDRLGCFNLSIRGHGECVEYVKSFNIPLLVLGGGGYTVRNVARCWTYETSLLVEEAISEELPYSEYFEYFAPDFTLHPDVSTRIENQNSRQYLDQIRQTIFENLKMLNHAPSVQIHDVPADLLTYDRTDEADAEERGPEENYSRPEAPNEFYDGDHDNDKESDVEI
Sequence (Q9Y618 395-489 partner limits assumed): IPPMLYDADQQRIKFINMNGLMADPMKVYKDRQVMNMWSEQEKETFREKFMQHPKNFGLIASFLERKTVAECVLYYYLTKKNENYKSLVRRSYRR
Assay Text: In vitro HDAC inhibitory assay, recombinant HDAC3
Answers are plain numbers, in nM.

Observe how each entry below is paired with its result.
- CCCCNNC(=O)c1ccc(N2CCN(C(=O)c3cc(-c4ccc(-c5ccccc5)cc4)nc4ccccc34)CC2)cc1 [Compound D30]: 100
- CCCNNC(=O)c1ccc(N2CCN(C(=O)c3cc(-c4ccc(-c5ccccc5)cc4)nc4ccccc34)CC2)cc1 [Compound D29]: 477

Kindly note: HDAC3 (Homo sapiens), O=C(NO)c1ccc(N2CCN(C(=O)c3cc(-c4ccc(-c5ccccc5)cc4)nc4ccccc34)CC2)cc1 [Compound D28] , IC50 value reported: 24500

====

Assayed System: HDAC6 (Homo sapiens, UniProt Q9UBN7)
Sequence (Q9UBN7 whole entry): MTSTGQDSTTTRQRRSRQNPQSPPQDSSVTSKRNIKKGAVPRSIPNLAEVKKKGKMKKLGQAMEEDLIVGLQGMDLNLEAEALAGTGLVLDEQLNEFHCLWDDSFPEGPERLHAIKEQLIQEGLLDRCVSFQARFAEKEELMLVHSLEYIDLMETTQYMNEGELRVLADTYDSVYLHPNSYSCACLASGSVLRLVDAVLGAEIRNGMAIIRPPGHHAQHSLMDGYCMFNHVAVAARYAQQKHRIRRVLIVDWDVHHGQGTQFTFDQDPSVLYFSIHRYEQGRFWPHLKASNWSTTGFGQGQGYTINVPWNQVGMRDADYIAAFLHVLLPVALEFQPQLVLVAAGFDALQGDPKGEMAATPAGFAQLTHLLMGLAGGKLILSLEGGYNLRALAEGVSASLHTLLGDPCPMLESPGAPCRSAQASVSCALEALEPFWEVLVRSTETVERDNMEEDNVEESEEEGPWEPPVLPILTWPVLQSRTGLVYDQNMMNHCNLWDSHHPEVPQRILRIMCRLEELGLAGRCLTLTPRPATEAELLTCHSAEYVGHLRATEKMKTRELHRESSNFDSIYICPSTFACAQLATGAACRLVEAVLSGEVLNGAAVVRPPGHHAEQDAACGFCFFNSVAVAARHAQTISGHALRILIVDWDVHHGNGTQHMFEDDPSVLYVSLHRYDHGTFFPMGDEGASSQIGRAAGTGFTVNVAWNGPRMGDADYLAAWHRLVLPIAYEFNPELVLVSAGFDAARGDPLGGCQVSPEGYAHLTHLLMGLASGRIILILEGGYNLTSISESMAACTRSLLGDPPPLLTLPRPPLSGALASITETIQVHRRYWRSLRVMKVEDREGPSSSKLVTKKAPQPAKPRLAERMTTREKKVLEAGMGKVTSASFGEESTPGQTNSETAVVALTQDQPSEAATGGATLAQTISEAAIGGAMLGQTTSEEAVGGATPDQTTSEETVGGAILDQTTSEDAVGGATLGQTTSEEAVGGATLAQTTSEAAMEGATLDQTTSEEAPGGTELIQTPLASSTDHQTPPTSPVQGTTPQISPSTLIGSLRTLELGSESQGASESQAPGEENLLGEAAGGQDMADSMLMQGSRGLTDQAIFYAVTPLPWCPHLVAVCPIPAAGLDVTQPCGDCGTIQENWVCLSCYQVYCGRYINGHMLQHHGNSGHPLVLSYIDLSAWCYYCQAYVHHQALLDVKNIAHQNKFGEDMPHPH
Assay Text: In vitro HDAC inhibitory assay, recombinant HDAC6
pIC50: −log10 of the molar value.
Please provide measured pIC50 for the entries that follow.

Observe how each entry below is paired with its result.
• CCCNNC(=O)c1ccc(N2CCN(C(=O)c3cc(-c4ccc(-c5ccccc5)cc4)nc4ccccc34)CC2)cc1 = < 3.00
• CCCCNNC(=O)c1ccc(N2CCN(C(=O)c3cc(-c4ccc(-c5ccccc5)cc4)nc4ccccc34)CC2)cc1 = < 3.00

# input for lookup
Recorded result, O=C(NO)c1ccc(N2CCN(C(=O)c3cc(-c4ccc(-c5ccccc5)cc4)nc4ccccc34)CC2)cc1 , pIC50: < 3.00

====

Property Measured: melting point

- Cc1cccc(-c2cc(C(=O)N3CCN(c4ccc(C(=O)NO)cc4)CC3)c3ccccc3n2)c1 [Compound D9]: 199.2 to 199.7 °C

Could I get melting point for every one of these entries?
1. COc1cccc(-c2cc(C(=O)N3CCN(c4ccc(C(=O)NO)cc4)CC3)c3ccccc3n2)c1 [Compound D11]
2. O=C(NO)c1ccc(N2CCN(C(=O)c3cc(-c4ccccc4F)nc4ccccc34)CC2)cc1 [Compound D10]

Result:
1: 179.8 to 180.9 °C; 2: 172.5 to 173.3 °C

Could I get melting point for every one of these entries?
1. COc1ccccc1-c1cc(C(=O)N2CCN(c3ccc(C(=O)NO)cc3)CC2)c2ccccc2n1 [Compound D13]
2. O=C(NO)c1ccc(N2CCN(C(=O)c3cc(-c4cc(F)ccc4F)nc4ccccc34)CC2)cc1 [Compound D27]
3. CSc1ccc(-c2cc(C(=O)N3CCN(c4ccc(C(=O)NO)cc4)CC3)c3ccccc3n2)cc1 [Compound D5]
4. O=C(NO)c1ccc(N2CCN(C(=O)c3cc(-c4ccccc4)nc4ccccc34)CC2)cc1 [Compound D1]

Result:
1: 224 to 224.9 °C; 2: 196.9 to 198 °C; 3: 177.2 to 179.6 °C; 4: 213.8 to 214.8 °C

Could I get melting point for every one of these entries?
1. O=C(NO)c1ccc(N2CCN(C(=O)c3cc(-c4ccc(F)cc4)nc4ccccc34)CC2)cc1 [Compound D4]
2. O=C(NO)c1ccc(N2CCN(C(=O)c3cc(-c4ccc(NC(=O)c5ccccc5F)cc4)nc4ccccc34)CC2)cc1 [Compound D22]
3. O=C(NO)c1ccc(N2CCN(C(=O)c3cc(-c4ccc(NC(=O)c5cccc(F)c5)cc4)nc4ccccc34)CC2)cc1 [Compound D26]

Result:
1: 163.5 to 164.8 °C; 2: 163.5 to 164.2 °C; 3: 232.6 to 232.9 °C
